- EXPERIMENT_DESCRIPTION: Apparent volume of distribution in Sprague-Dawley rat at 1 mg/kg, iv administered as single dose measured after 24 to 48 hrs
- RUN_PARAMETERS: in vivo
Please note: Vd exactly at 8 L/kg is condition not met. Only values below 8 L/kg get condition met.

{"RECORD_SMILES": "CN(C)[C@@H]1C(O)=C(C(N)=O)C(=O)[C@@]2(O)C(O)=C3C(=O)c4c(c(F)c5ccc(CN6CCC6)cc5c4O)C[C@H]3C[C@@H]12", "CLASS_NAME": "condition not met"}
{"RECORD_SMILES": "COc1c2c(c(O)c3cc(CN4CCC4)ccc13)C(=O)C1=C(O)[C@]3(O)C(=O)C(C(N)=O)=C(O)[C@@H](N(C)C)[C@@H]3C[C@@H]1C2", "CLASS_NAME": "condition met"}
{"RECORD_SMILES": "COc1c2c(c(O)c3cc(CNCC(C)C)ccc13)C(=O)C1=C(O)[C@]3(O)C(=O)C(C(N)=O)=C(O)[C@@H](N(C)C)[C@@H]3C[C@@H]1C2", "CLASS_NAME": "condition not met"}
{"RECORD_SMILES": "CC(C)CNCc1ccc2cc3c(c(O)c2c1)C(=O)C1=C(O)[C@]2(O)C(=O)C(C(N)=O)=C(O)[C@@H](N(C)C)[C@@H]2C[C@@H]1C3", "CLASS_NAME": "condition met"}
{"RECORD_SMILES": "COc1c2c(c(O)c3cc(CN4CC(F)C4)ccc13)C(=O)C1=C(O)[C@]3(O)C(=O)C(C(N)=O)=C(O)[C@@H](N(C)C)[C@@H]3C[C@@H]1C2", "CLASS_NAME": "condition met"}
{"RECORD_SMILES": "COCCNCc1ccc2cc3c(c(O)c2c1)C(=O)C1=C(O)[C@]2(O)C(=O)C(C(N)=O)=C(O)[C@@H](N(C)C)[C@@H]2C[C@@H]1C3", "CLASS_NAME": "condition met"}

Hello, I'm reviewing records and need to know if Vd of CN(C)[C@@H]1C(O)=C(C(N)=O)C(=O)[C@@]2(O)C(O)=C3C(=O)c4c(c(F)c5ccc(CNC(C)(C)C)cc5c4O)C[C@H]3C[C@@H]12 is below 8 L/kg. Could you check?
condition not met

Hello, I'm reviewing records and need to know if Vd of COc1c2c(c(O)c3cc(CNC4CC4)ccc13)C(=O)C1=C(O)[C@]3(O)C(=O)C(C(N)=O)=C(O)[C@@H](N(C)C)[C@@H]3C[C@@H]1C2 is below 8 L/kg. Could you check?
condition not met

Hello, I'm reviewing records and need to know if Vd of CN(C)[C@@H]1C(O)=C(C(N)=O)C(=O)[C@@]2(O)C(O)=C3C(=O)c4c(cc5ccc(CN6CC(F)C6)cc5c4O)C[C@H]3C[C@@H]12 is below 8 L/kg. Could you check?
condition met

Hello, I'm reviewing records and need to know if Vd of CN(C)[C@@H]1C(O)=C(C(N)=O)C(=O)[C@@]2(O)C(O)=C3C(=O)c4c(c(F)c5ccc(CN6CC(F)C6)cc5c4O)C[C@H]3C[C@@H]12 is below 8 L/kg. Could you check?
condition met

* * *

- System: Pseudomonas aeruginosa
- EXPERIMENT_DESCRIPTION: Antimicrobial activity against tetracycline-susceptible Pseudomonas aeruginosa isolate 111 by CLSI dilution method
- Type: functional
REPORTED_PROPERTY: MIC (µg/mL)
The figure you give is taken to be in µg/mL; do not add the unit.

{"RECORD_SMILES": "CN(C)[C@@H]1C(O)=C(C(N)=O)C(=O)[C@@]2(O)C(O)=C3C(=O)c4c(c(F)c5ccc(CNC(C)(C)C)cc5c4O)C[C@H]3C[C@@H]12", "TARGET_OR_TEST_SYSTEM": "Pseudomonas aeruginosa", "MIC, µg/mL": 16}
{"RECORD_SMILES": "COc1c2c(c(O)c3cc(CN(C)C)ccc13)C(=O)C1=C(O)[C@]3(O)C(=O)C(C(N)=O)=C(O)[C@@H](N(C)C)[C@@H]3C[C@@H]1C2", "TARGET_OR_TEST_SYSTEM": "Pseudomonas aeruginosa", "MIC, µg/mL": 32}

Now consider the entry below.
Can you share its MIC? I mean this molecule: CN(C)c1ccc(O)c2c1C[C@H]1C[C@H]3[C@H](N(C)C)C(O)=C(C(N)=O)C(=O)[C@@]3(O)C(O)=C1C2=O
16

* * *

- EXPERIMENT_DESCRIPTION: Elimination half life in Sprague-Dawley rat at 1 mg/kg, iv administered as single dose
- Format: ADME, organism-based
- Design: dose 1 mg/kg, route intravenous
- RUN_PARAMETERS: in vivo, read-out: beta t1/2 (converted)
Catalogue of compounds with associated half-life
The figure you give is taken to be in h; do not add the unit.

Past entries and their recorded results:
{"RECORD_SMILES": "COc1c2c(c(O)c3cc(CN4CCC4)ccc13)C(=O)C1=C(O)[C@]3(O)C(=O)C(C(N)=O)=C(O)[C@@H](N(C)C)[C@@H]3C[C@@H]1C2", "half-life (h)": 5.26}
{"RECORD_SMILES": "COCCNCc1ccc2cc3c(c(O)c2c1)C(=O)C1=C(O)[C@]2(O)C(=O)C(C(N)=O)=C(O)[C@@H](N(C)C)[C@@H]2C[C@@H]1C3", "half-life (h)": 5.19}
{"RECORD_SMILES": "CN(C)[C@@H]1C(O)=C(C(N)=O)C(=O)[C@@]2(O)C(O)=C3C(=O)c4c(c(F)c5ccc(CNC(C)(C)C)cc5c4O)C[C@H]3C[C@@H]12", "half-life (h)": 7.82}
{"RECORD_SMILES": "COc1c2c(c(O)c3cc(CNCC(C)C)ccc13)C(=O)C1=C(O)[C@]3(O)C(=O)C(C(N)=O)=C(O)[C@@H](N(C)C)[C@@H]3C[C@@H]1C2", "half-life (h)": 5.4}

Now consider the entry below.
Can you share its half-life? I mean this compound: CN(C)[C@@H]1C(O)=C(C(N)=O)C(=O)[C@@]2(O)C(O)=C3C(=O)c4c(c(F)c5ccc(CN6CCC6)cc5c4O)C[C@H]3C[C@@H]12
8.01

* * *

Catalogue of molecules with associated MIC
- Tested on: Enterococcus faecalis
- EXPERIMENT_DESCRIPTION: Antimicrobial activity against tetracycline-resistant Enterococcus faecalis isolate 159 harboring […] gene by CLSI dilution method
- Assay type: functional

{"RECORD_SMILES": "CN(C)[C@@H]1C(O)=C(C(N)=O)C(=O)[C@@]2(O)C(O)=C3C(=O)c4c(cc5c(CNC6CC6)cccc5c4O)C[C@H]3C[C@@H]12", "ASSAY_RESULT": "16 µg/mL"}

Can you share its MIC? I mean this molecule: CN(C)c1cc(NC(=O)CNC(C)(C)C)c(O)c2c1C[C@H]1C[C@H]3[C@H](N(C)C)C(O)=C(C(N)=O)C(=O)[C@@]3(O)C(O)=C1C2=O
0.0625 µg/mL

Can you share its MIC? I mean this molecule: CN(C)c1c2c(c(O)c3cc(F)ccc13)C(=O)C1=C(O)[C@]3(O)C(=O)C(C(N)=O)=C(O)[C@@H](N(C)C)[C@@H]3C[C@@H]1C2
0.25 µg/mL

* * *

Catalogue of compounds with associated Cmax
- EXPERIMENT_DESCRIPTION: Cmax in Sprague-Dawley rat at 1 mg/kg, iv administered as single dose measured after 24 to 48 hrs
- Format: ADME, organism-based
- Parameters: dose 1 mg/kg, route intravenous
- RUN_PARAMETERS: in vivo

Past entries and their recorded results:
{"RECORD_SMILES": "CN(C)c1cc(NC(=O)CNC(C)(C)C)c(O)c2c1C[C@H]1C[C@H]3[C@H](N(C)C)C(O)=C(C(N)=O)C(=O)[C@@]3(O)C(O)=C1C2=O", "Cmax": "428 ng/mL"}
{"RECORD_SMILES": "CN(C)[C@@H]1C(O)=C(C(N)=O)C(=O)[C@@]2(O)C(O)=C3C(=O)c4c(O)cccc4[C@@](C)(O)[C@H]3C[C@@H]12", "Cmax": "583 ng/mL"}
{"RECORD_SMILES": "COCCNCc1ccc2cc3c(c(O)c2c1)C(=O)C1=C(O)[C@]2(O)C(=O)C(C(N)=O)=C(O)[C@@H](N(C)C)[C@@H]2C[C@@H]1C3", "Cmax": "633 ng/mL"}
{"RECORD_SMILES": "CN(C)[C@@H]1C(O)=C(C(N)=O)C(=O)[C@@]2(O)C(O)=C3C(=O)c4c(c(F)c5ccc(CNC(C)(C)C)cc5c4O)C[C@H]3C[C@@H]12", "Cmax": "278 ng/mL"}
{"RECORD_SMILES": "COc1c2c(c(O)c3cc(CN4CC(F)C4)ccc13)C(=O)C1=C(O)[C@]3(O)C(=O)C(C(N)=O)=C(O)[C@@H](N(C)C)[C@@H]3C[C@@H]1C2", "Cmax": "237 ng/mL"}

Now consider the entry below.
Can you share its Cmax? I mean this compound: COc1c2c(c(O)c3cc(CNC4CC4)ccc13)C(=O)C1=C(O)[C@]3(O)C(=O)C(C(N)=O)=C(O)[C@@H](N(C)C)[C@@H]3C[C@@H]1C2
124 ng/mL
